pKd values, listed per item
# measurement target: T1, Recombinant soluble E protein (0.8E-His) from DENV-1 (DENV-1, UniProt P27909 281-675)
# T1 construct: also called DENV-1 E protein; DV1
Just the number, please; pKd means minus log10 of the concentration in mol/L.

- binder: "DG_3CH953-SG182/3CL668-SK1 (antibody, V domains shown) VH: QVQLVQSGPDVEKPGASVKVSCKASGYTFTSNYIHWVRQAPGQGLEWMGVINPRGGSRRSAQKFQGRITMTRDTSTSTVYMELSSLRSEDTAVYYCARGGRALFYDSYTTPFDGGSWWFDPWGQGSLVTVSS VL: DIQLTQSPSSLSASVGDRVTITCQASQDIRKYLNWYQQKPGKAPKLLIYDASNLKTGVPSRFSGSGSGTDFTLTISSLQPEDVATYYCQQFEDLPITFGQGTRLQIKR"
  pKd: 8.77

[Q] Provide pKd value for the following binder: DG_3CH992-SG182/3CL633-SK1 (antibody, V domains shown) VH: QVQLVQSGAEVKKPGASVKVSCKASGYTFTSYYIHWVRQAPGQGLEWMGVINPRGGSRRSAQKFQGRVTMTRDTSTSTVYMELSSLRSEDTAVYYCARGGRALFYDSYTTPFDGGSWWFDPWGQGSLVTVSS VL: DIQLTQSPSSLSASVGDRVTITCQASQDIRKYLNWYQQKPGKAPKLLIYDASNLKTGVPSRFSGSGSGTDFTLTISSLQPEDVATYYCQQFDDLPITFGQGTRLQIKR
[A] 8.90

[Q] Provide pKd value for the following binder: DG_3CH989-SG182/3CL012-SK1 (antibody, V domains shown) VH: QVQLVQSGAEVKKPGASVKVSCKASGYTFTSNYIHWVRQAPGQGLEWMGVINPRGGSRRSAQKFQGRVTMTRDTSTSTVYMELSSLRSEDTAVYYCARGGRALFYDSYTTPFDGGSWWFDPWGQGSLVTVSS VL: DIQLTQSPSSLSASVGDRVTFTCQASQDIRKYLNWYQQKPGKAPKLLIYDASNLKTGVPSRFSGSGSGTDFTFTISSLQPEDVATYYCQQFEDLPITFGQGTRLQIKR
[A] 8.82

[Q] Provide pKd value for the following binder: DG_3CH989-SG182/3CL-SK1 (antibody, V domains shown) VH: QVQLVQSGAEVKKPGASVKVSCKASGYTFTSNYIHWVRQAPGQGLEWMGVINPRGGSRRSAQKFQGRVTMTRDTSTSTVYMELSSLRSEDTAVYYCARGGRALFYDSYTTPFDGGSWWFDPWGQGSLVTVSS VL: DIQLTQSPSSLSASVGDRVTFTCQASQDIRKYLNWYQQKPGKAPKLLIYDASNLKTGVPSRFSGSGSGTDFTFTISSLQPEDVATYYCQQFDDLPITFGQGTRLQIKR
[A] 8.74
